- Test system: Mfn2 null MEFs
- assay-summary: Mitochondrial elongation (aspect ratio) fusogenicity assay
- Assay type: cell-based, mouse
- Set-up: dose or concentration left out as unconfirmed
- experimental-conditions: mitochondrial elongation relative to Cpd B (B01 = 100); Mfn2 null MEFs, compound overnight as printed (FIG. 48)
Reported % long compare to B by item:
Answer format: numeric, % implied, no suffix.

Here are 5 molecules together with their reported answers.
{"molecule": "CC(Sc1nnc(C2CC2)n1Cc1ccccc1)C(=O)Nc1sc2c(c1C(N)=O)CCC2 (stereo not drawn)", "experimental-target": "Mfn2 null MEFs", "readout-units": "%", "% long compare to B": "−9"}
{"molecule": "C=CCn1c(SCC(=O)Nc2sc3c(c2C(N)=O)CCCC3)nnc1C1CC1", "experimental-target": "Mfn2 null MEFs", "readout-units": "%", "% long compare to B": 202}
{"molecule": "CCOC(=O)c1sc(NC(=O)C(CC)Sc2nnc3c(n2)[nH]c2ccccc23)nc1C (stereo not drawn)", "experimental-target": "Mfn2 null MEFs", "readout-units": "%", "% long compare to B": 24}
{"molecule": "Cc1occc1-c1nnc(SC(C)C(=O)Nc2sc3c(c2C(N)=O)CCC3)n1C (stereo not drawn)", "experimental-target": "Mfn2 null MEFs", "readout-units": "%", "% long compare to B": "−3"}
{"molecule": "C=CCn1c(SCC(=O)Nc2sc3c(c2C(N)=O)CCC3)nnc1-c1ccccc1", "experimental-target": "Mfn2 null MEFs", "readout-units": "%", "% long compare to B": "−10"}

## Task Value lookup for % long compare to B; key = NC(=O)c1c(NC(=O)CSc2nncn2-c2ccccc2)sc2c1CCC2
## Result −13

## Task Reported % long compare to B for CC1CCCCC1NC(=O)NCCSCc1ccccc1 (stereo not drawn) : what is it?
## Result 71

## Task Looking for the measured % long compare to B of COc1ccc2c(c1)C1(SCCN1C(=O)c1ccccc1C)C(=O)N2Cc1cccc(C(F)(F)F)c1 (stereo not drawn) , can you help?
## Result 4

## Task What value of measured % long compare to B is listed for O=C(NCCSCc1cccc(Cl)c1)C1CCCCn2nnnc21 (stereo not drawn) ?
## Result −6

Origin of the recorded values: patent US10844023B2
